# Tested on: HSC2 (primary human Schwann cells)
# Test description: drug sensitivity score (DSS, CellTiter-Glo viability, 72 h) (DSS (dimensionless)); higher = more sensitive; extreme values may be limits of the assay
Measurement type: drug sensitivity score
Give bare numbers.

Worked cases, drug sensitivity score given:
| Compound | drug sensitivity score |
| --- | --- |
| CC(O)(CS(=O)(=O)c1ccc(F)cc1)C(=O)Nc1ccc(C#N)c(C(F)(F)F)c1 (stereo not drawn) [Bicalutamide] (max concentration tested 10000 nM) | 0 |
| Cc1ccc(C(=O)N(CCCN)[C@@H](c2oc3cc(Cl)ccc3c(=O)c2Cc2ccccc2)C(C)C)cc1 (max concentration tested 100 nM) | 0 |

Return reported drug sensitivity score values for all items listed beneath this line.
1. CC(C)Cn1cnc2c(N)nc3ccccc3c21 [Imiquimod] (max concentration tested 2500 nM)
2. CNC(=O)c1ccc(N2C(=S)N(c3ccc(C#N)c(C(F)(F)F)c3)C(=O)C2(C)C)cc1F [Enzalutamide] (max concentration tested 10000 nM)
3. COc1c(C)cnc(Cn2cnc3c(Cl)nc(N)nc32)c1C [BIIB021] (max concentration tested 10000 nM)
4. S=P(N1CC1)(N1CC1)N1CC1 [Thio-TEPA] (max concentration tested 50000 nM)
5. Cn1c(=O)c(F)c(Nc2ccc(I)cc2F)c2c(=O)n(C[C@@H](O)CO)cnc21 [TAK-733] (max concentration tested 1000 nM)
6. CN(C)CCOc1ccc(/C(=C(/CCCl)c2ccccc2)c2ccccc2)cc1 [Toremifene] (max concentration tested 10000 nM)
7. N#Cc1ccc(C(c2ccc(C#N)cc2)n2cncn2)cc1 [Letrozole] (max concentration tested 10000 nM)
8. Cc1cc(Nc2nc(N[C@@H](C)c3ncc(F)cn3)ncc2Cl)[nH]n1 [AZD1480] (max concentration tested 1000 nM)

0
0
17.6
0
6.21
3.28
0
0.934

Return reported drug sensitivity score values for all items listed beneath this line.
1. O=C(NC[C@H](O)CO)c1ccncc1Nc1ccc(I)cc1F [Pimasertib] (max concentration tested 10000 nM)
2. COC(=O)c1ccc2c(c1)NC(=O)/C2=C(\Nc1ccc(N(C)C(=O)CN2CCN(C)CC2)cc1)c1ccccc1 [Nintedanib] (max concentration tested 10000 nM)
3. O=C1CN2Cc3c(ccc(Cl)c3Cl)N=C2N1 [Anagrelide] (max concentration tested 10000 nM)

1: 7.43; 2: 0; 3: 11.1

* * *

# Test system: ST8814
# Test description: relative IC50 (inflection point of fitted dose-response curve, CellTiter-Glo viability, 72 h; top asymptote may be below 50% inhibition); higher = less potent
Classification field: enter fulfilled for relative IC50 values not below 2000 nM, not fulfilled for values below it.

Worked cases, answers included:
| Molecule | Assayed target | Group |
| --- | --- | --- |
| COc1cc2c(cc1O)CC[C@@H]1[C@@H]2CC[C@]2(C)[C@@H](O)CC[C@@H]12 [2-methoxyestradiol] | ST8814 | fulfilled |
| CCCC(CCC)C(=O)O [Valproic acid aq] | ST8814 | fulfilled |

Answer whether relative IC50 of `COc1ncc(-c2ccc3nccc(-c4ccnnc4)c3c2)cc1NS(=O)(=O)c1ccc(F)cc1F` is greater than or equal to 2000 nM.
not fulfilled

And then CO[C@@H](C(=O)N1Cc2[nH]nc(NC(=O)c3ccc(N4CCN(C)CC4)cc3)c2C1)c1ccccc1 [Danusertib] , what is it?
not fulfilled

And then CC/C(=C(\c1ccc(O)cc1)c1ccc(OCCN(C)C)cc1)c1ccccc1 [4-hydroxytamoxifen] , what is it?
fulfilled

And then O=C1NC(=O)[C@@H](c2cn3c4c(cccc24)CCC3)[C@@H]1c1c[nH]c2ccccc12 [Tivantinib] , what is it?
not fulfilled

And then Nc1cccc2c1C(=O)N(C1CCC(=O)NC1=O)C2=O (stereo not drawn) [Pomalidomide] , what is it?
fulfilled

And then CO[C@H]1/C=C\C=C(/C)C(=O)NC2=CC(=O)C(NCCN(C)C)=C(C[C@@H](C)C[C@H](OC)[C@H](O)[C@@H](C)/C=C(\C)[C@@H]1OC(N)=O)C2=O [Alvespimycin] , what is it?
not fulfilled
